Test system: Jurkat human leukemia T cells
assay.protocol: Inhibition of Jurkat human leukemia T cell proliferation (MTT reduction)
Assay type: cell-based
test.conditions: 100 μg/ml sequence, 48 h, 2.5×10^5 cells/ml
metric: % INHIBITION of Jurkat human leukemia T cell proliferation (%)
Numbers only, in %.

Here are 5 substances together with their reported answers.
Query :: Need % INHIBITION of Jurkat human leukemia T cell proliferation, item GGGTGGGTGGGTGGGTGGGTGGGTGGG [SEQ ID NO:2]
Result :: 23

Query :: Need % INHIBITION of Jurkat human leukemia T cell proliferation, item TGTGTGTGT (unmodified DNA) [SEQ ID NO:11]
Result :: 45

Query :: Need % INHIBITION of Jurkat human leukemia T cell proliferation, item GTGTGTGTGTGTGTGTGTGTG (unmodified DNA) [SEQ ID NO:20]
Result :: 46

Query :: Need % INHIBITION of Jurkat human leukemia T cell proliferation, item ATGTAT (unmodified DNA) [SEQ ID NO:30]
Result :: 16

Query :: Need % INHIBITION of Jurkat human leukemia T cell proliferation, item CTGTCT [SEQ ID NO:36]
Result :: 19

Each substance below has a reported value. Please supply its % INHIBITION of Jurkat human leukemia T cell proliferation.
1. GGGTGG [SEQ ID NO:25]
2. GTGTGTGTGTGTGTGTGTGTGTGTGTG [SEQ ID NO:1] (chemistry not given here)
3. GGAAGG (unmodified DNA) [SEQ ID NO:42]

Result ::
1. 60
2. 51
3. 22
